# cytotoxic activity (ADCC) against MNK45 annotations
# target entity: T1, human CAPRIN-1 protein on the cell surfaces of human cancer cell lines and in human cancer tissues (human, UniProt Q14444 2-709)
# T1 sequence (looked up): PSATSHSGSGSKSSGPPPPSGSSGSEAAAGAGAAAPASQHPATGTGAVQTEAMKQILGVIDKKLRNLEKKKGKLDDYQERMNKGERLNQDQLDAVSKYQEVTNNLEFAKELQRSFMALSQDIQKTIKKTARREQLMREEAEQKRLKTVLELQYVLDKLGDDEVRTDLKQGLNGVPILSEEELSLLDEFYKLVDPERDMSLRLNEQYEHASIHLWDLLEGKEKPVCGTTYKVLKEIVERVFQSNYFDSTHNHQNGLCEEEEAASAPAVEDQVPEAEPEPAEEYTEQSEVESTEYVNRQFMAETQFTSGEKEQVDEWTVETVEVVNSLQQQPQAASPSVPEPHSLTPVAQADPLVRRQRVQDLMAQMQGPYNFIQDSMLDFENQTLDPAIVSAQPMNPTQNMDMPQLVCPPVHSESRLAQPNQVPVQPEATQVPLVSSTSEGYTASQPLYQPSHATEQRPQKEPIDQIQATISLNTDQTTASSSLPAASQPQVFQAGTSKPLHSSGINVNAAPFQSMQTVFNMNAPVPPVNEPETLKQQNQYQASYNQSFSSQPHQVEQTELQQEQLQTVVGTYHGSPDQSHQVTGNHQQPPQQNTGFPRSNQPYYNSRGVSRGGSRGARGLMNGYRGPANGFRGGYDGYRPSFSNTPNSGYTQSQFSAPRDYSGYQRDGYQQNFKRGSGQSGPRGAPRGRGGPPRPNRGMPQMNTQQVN
# assay overview: cell-based or functional assay
readout type: cytotoxic activity (ADCC) against MNK45

binder: anti-CAPRIN-1 mouse monoclonal antibody #4 (antibody, V domains shown) VH: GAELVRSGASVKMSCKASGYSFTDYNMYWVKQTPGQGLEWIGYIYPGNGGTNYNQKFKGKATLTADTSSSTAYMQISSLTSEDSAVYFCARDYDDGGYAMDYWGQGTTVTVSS VL: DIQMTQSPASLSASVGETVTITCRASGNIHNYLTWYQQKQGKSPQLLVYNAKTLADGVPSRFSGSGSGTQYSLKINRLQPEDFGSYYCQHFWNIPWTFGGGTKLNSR
observed measurement: ≥ 10%

binder: anti-CAPRIN-1 mouse monoclonal antibody #5 (antibody, V domains shown, Mouse hybridoma antibody; detected with anti-mouse IgG) VH: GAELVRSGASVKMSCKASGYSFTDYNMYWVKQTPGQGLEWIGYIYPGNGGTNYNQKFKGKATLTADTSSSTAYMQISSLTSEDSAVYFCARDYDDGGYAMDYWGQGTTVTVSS VL: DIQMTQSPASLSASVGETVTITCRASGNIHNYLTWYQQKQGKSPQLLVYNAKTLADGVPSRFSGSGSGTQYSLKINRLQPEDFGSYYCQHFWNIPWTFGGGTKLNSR
observed measurement: ≥ 10%

binder: human-chicken chimeric antibody #1 having the chicken monoclonal antibody #1 variable region (antibody, V domains shown, also called anti-CAPRIN-1 antibody #1; human-chicken chimeric monoclonal antibody (#1); not shown: human IgG1 H-chain constant region; human IgG1 L-chain constant region) VH: AVTLDESGGGLQMSRGGLSLVCKASGFDFSSYQMNWIRQAPGKGLEFVAAINKFGNSTGHGAAVKGRVTISRDNGQSTVRLQLNNLRAEDTAIYFCTKHAYGYCGSGTWCAAGEIDAWGHGTEVIVSS VL: QAASTQPSSVSANPGETVEITCSGGGSYSYGWFQQKSPGSAPVTVIYYNNKRPSDIPSRFSGSKSGSTGTLTITGVQADDEAVYYCGSGDSTDTAVFGAGTTLTVLG
observed measurement: 25.3%

binder: anti-CAPRIN-1 mouse monoclonal antibody #6 (antibody, V domains shown, Mouse hybridoma antibody; detected with anti-mouse IgG) VH: DAELVKPGASVKISCKASGYTFTDHSIHWVQQKPEQGLEWIGYISPGNGNIKYNEKFKGKATLTADKSSSTAYMQLNSLTSEDSAVYFCKRSLGRGGPYYFDYWGQGTTVTVSS VL: DIVLTQAAPSLPVTPGESVSISCRSSKSLLHSNGNTYLYWFLQRPGQSPQLLIYRMSNLASGVPDRFSGSGSGTAFTLRISRVEAEDVGVYYCMQHREYPVTFGSGPN
observed measurement: ≥ 10%
